Just for reference, the supplement of paper PMC4862054 is where these values come from.

Tested on: CAL-51
Experimental protocol: drug sensitivity score (DSS), CellTiter-Glo (DSS (AUC-based score)); higher = stronger drug effect (viability inhibition or cytotoxicity); extreme values may be limits of the assay
Cond: incubation time: 72 h
Assay endpoint: drug sensitivity score

O=C(O)C(=O)O.[NH-][C@@H]1CCCC[C@H]1[NH-].[Pt+2] 0
Nc1nc2[nH]cc(CCc3ccc(C(=O)N[C@@H](CCC(=O)O)C(=O)O)cc3)c2c(=O)[nH]1 13.7
CCCS(=O)(=O)Nc1ccc(F)c(C(=O)c2c[nH]c3ncc(-c4ccc(Cl)cc4)cc23)c1F 2.75
CC[C@H](Nc1ncnc2[nH]cnc12)c1nc2cccc(F)c2c(=O)n1-c1ccccc1 0
CNC(=O)c1cc(Oc2ccc(NC(=O)Nc3cc(C(C)(C)C)nn3-c3ccc4ncccc4c3)c(F)c2)ccn1 0

**Q:** Value lookup for drug sensitivity score; key = C=CC(=O)Nc1cc2c(Nc3ccc(F)c(Cl)c3)ncnc2cc1OCCCN1CCOCC1
**A:** 14.1
